# target desc: Human complement C1s enzyme (Homo sapiens)
# Construct: purified from human serum, Complement Technology, Inc
# procedure text: Human C1s enzyme assay
# test parameters: human complement C1s enzyme 1.16 nM, substrate Z-L-Lys-SBzl, A405; read-out: IC50 (Stars)
Exercise: state measured IC50 for each of the compounds provided.

Examples from the recorded data:
compound: O=C(Cn1c(-c2ccccc2)ncc(NC(=O)c2ccc(-c3ccccc3)s2)c1=O)NCc1cc2cnccc2[nH]1
target desc: Human complement C1s enzyme (Homo sapiens)
IC50: < 100 nM
--
compound: O=C(Cn1c(-c2ccc(N3CCOCC3)cc2)ncc(NCc2ccc3oc4ccccc4c3c2)c1=O)NCc1cc2cnccc2[nH]1
target desc: Human complement C1s enzyme (Homo sapiens)
IC50: < 100 nM
--
compound: C[C@H](Nc1cnc(-c2cnn(C)c2)n(CC(=O)NCc2cc3cnccc3[nH]2)c1=O)c1ccc2oc3ccccc3c2c1
target desc: Human complement C1s enzyme (Homo sapiens)
IC50: < 100 nM
--
compound: O=C(Cn1c(-c2ccccc2)ncc(NCc2ccc3c(c2)C(F)(F)c2ccccc2-3)c1=O)NCc1cc2cnccc2[nH]1
target desc: Human complement C1s enzyme (Homo sapiens)
IC50: < 100 nM
--
compound: C[C@H](Nc1cnc(-c2cccnc2)n(CC(=O)NCc2cc3cnccc3[nH]2)c1=O)c1ccc2oc3ccccc3c2c1
target desc: Human complement C1s enzyme (Homo sapiens)
IC50: < 100 nM
--
compound: C[C@@H](Nc1ncc(-c2cscn2)n(CC(=O)NCc2cc3cnccc3[nH]2)c1=O)c1ccc(-c2ccccc2F)cc1
target desc: Human complement C1s enzyme (Homo sapiens)
IC50: < 100 nM

Need IC50 for each of these compounds.
1. O=C(Cn1c(N2CCCCC2)ncc(NC(CF)c2ccc3oc4ccccc4c3c2)c1=O)NCc1cc2cnccc2[nH]1 (single isomer, unassigned)
2. O=C(Cn1c(-c2ccccc2)ncc(NC(=O)c2ccc(-c3ccccc3)c(F)c2)c1=O)NCc1cc2cnccc2[nH]1
3. O=C(Cn1c(-c2ccccc2)ncc(Nc2ccc3c(c2)oc2ccccc23)c1=O)NCc1cc2cnccc2[nH]1
4. C[C@@H](Nc1cnc(N2C3CCC2COC3)n(CC(=O)NCc2cc3cnccc3[nH]2)c1=O)c1ccc2oc3ccccc3c2c1
5. COc1ccccc1-c1ccc(CNc2cnc(-c3ccccc3)n(CC(=O)NCc3cc4cnccc4[nH]3)c2=O)cc1
6. O=C(Cn1c(-c2ccccc2)ncc(NC(=O)c2ccc(-c3ccccc3)s2)c1=O)Nc1nc2cnccc2s1

< 100 nM
< 100 nM
< 100 nM
100 to 1000 nM
< 100 nM
> 1000 nM

Dear colleague, I am looking for the recorded IC50 of the following compound: C[C@@H](Nc1cnc(N2CCC(F)(F)CC2)n(CC(=O)NCc2cc3cnccc3[nH]2)c1=O)c1ccc2oc3ccccc3c2c1
> 1000 nM

* * *

# target desc: Human complement C1s enzyme (Homo sapiens)
# Construct: purified from human serum, Complement Technology, Inc
# Sequence (P09871 438-688 limits assumed): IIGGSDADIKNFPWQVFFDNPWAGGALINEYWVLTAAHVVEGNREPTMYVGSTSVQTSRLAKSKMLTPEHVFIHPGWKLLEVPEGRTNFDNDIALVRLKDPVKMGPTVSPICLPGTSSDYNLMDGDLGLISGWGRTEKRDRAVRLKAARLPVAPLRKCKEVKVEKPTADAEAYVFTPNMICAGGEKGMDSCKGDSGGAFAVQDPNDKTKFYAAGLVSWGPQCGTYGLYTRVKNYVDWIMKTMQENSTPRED
# Sequence (P09871 16-437 partner limits assumed): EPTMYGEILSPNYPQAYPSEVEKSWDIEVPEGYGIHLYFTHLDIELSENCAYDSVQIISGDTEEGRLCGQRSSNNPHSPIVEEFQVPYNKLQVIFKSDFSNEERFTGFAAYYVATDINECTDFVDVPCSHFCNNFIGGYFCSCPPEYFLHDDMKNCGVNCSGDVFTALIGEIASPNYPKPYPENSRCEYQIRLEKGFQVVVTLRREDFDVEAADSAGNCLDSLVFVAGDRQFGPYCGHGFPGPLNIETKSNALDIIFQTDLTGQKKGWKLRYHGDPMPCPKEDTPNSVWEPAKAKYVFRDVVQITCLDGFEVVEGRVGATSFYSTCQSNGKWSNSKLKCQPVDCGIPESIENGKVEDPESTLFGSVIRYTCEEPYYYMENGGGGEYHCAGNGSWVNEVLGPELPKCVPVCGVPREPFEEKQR
# procedure text: Human C1s enzyme assay
# test parameters: human complement C1s enzyme 1.16 nM, substrate Z-L-Lys-SBzl, A405; read-out: IC50 (Stars)
pIC50: −log10 of the molar value.
Kindly supply the reported pIC50 values for the records listed here.

Some entries whose results are on file:
compound: CO[C@@H]1CO[C@H]2[C@@H]1OC[C@H]2Oc1ccc(-c2ncc(N[C@H](C)c3ccc4oc5ccccc5c4c3)c(=O)n2CC(=O)NCc2cc3cnccc3[nH]2)cc1
target desc: Human complement C1s enzyme (Homo sapiens)
pIC50: > 7.00
--
compound: C[C@@H](Nc1cnc(-c2ccccc2)n(CC(=O)NCc2cc3cnccc3[nH]2)c1=O)c1coc(-c2ccccc2)n1
target desc: Human complement C1s enzyme (Homo sapiens)
pIC50: > 7.00
--
compound: O=C(Cn1c(-c2ccccc2)ncc(NCc2ccc3sc4ccccc4c3c2)c1=O)NCc1cc2cnccc2[nH]1
target desc: Human complement C1s enzyme (Homo sapiens)
pIC50: > 7.00
--
compound: C[C@@H](Nc1cnc(-c2ccc(O[C@@H]3CO[C@H]4[C@@H]3OC[C@H]4O)cc2)n(CC(=O)NCc2cc3cnccc3[nH]2)c1=O)c1ccc2oc3ccccc3c2c1
target desc: Human complement C1s enzyme (Homo sapiens)
pIC50: > 7.00
--
compound: C[C@@H](Nc1cnc(N2CCCCC2)n(CC(=O)NCc2cc3cnccc3[nH]2)c1=O)c1cnc(-c2ccccc2)o1
target desc: Human complement C1s enzyme (Homo sapiens)
pIC50: > 7.00

Need pIC50 for each of these compounds.
1. O=C(Cn1cncc(NCc2ccc3oc4ccccc4c3c2)c1=O)NCc1cc2cnccc2[nH]1
2. Cc1cnc(CNc2cnc(-c3ccccc3)n(CC(=O)NCc3cc4cnccc4[nH]3)c2=O)o1
3. C[C@@H](Nc1cnc(N2CCCCC2)n(CC(=O)NCc2cc3cnccc3[nH]2)c1=O)c1ncc(-c2ccccc2)o1

1. > 7.00
2. > 7.00
3. > 7.00

Data credit: patent US20260184707A1
